Listing: shrunken log2 fold change of selected sequences
tested on: Escherichia coli TOP10; assay: shrunken log2 fold change of peptide-encoding DNA abundance (4.5 h post-induction vs induction); higher = less antimicrobial activity (less host growth inhibition); settings: time post-induction: 4.5 h; library: site-saturation at positions 5, 18, 19, 20
Hey, just send me the number, nothing else.

Req: Kindly state the measured shrunken log2 fold change obtained for "RRIRRRPPRLPRPRPRPHNQPRP" with Escherichia coli TOP10.
Resp: -0.114

Req: Kindly state the measured shrunken log2 fold change obtained for "RRIRFRPPRLPRPRPRPGDDPRP" with Escherichia coli TOP10.
Resp: 0.342

Req: Kindly state the measured shrunken log2 fold change obtained for "RRIRYRPPRLPRPRPRPAWDPRP" with Escherichia coli TOP10.
Resp: -0.092

Req: Kindly state the measured shrunken log2 fold change obtained for "RRIRARPPRLPRPRPRPHTAPRP" with Escherichia coli TOP10.
Resp: 0.172

Req: Kindly state the measured shrunken log2 fold change obtained for "RRIRGRPPRLPRPRPRPPPDPRP" with Escherichia coli TOP10.
Resp: 1.37

Req: Kindly state the measured shrunken log2 fold change obtained for "RRIRLRPPRLPRPRPRPGTEPRP" with Escherichia coli TOP10.
Resp: -0.0405

---
Req: Kindly state the measured shrunken log2 fold change obtained for "RRIRDRPPRLPRPRPRPCVLPRP" with Escherichia coli TOP10.
Resp: 0.0171

Req: Kindly state the measured shrunken log2 fold change obtained for "RRIRVRPPRLPRPRPRPVLKPRP" with Escherichia coli TOP10.
Resp: -0.193

Req: Kindly state the measured shrunken log2 fold change obtained for "RRIRHRPPRLPRPRPRPWRYPRP" with Escherichia coli TOP10.
Resp: -0.49

Req: Kindly state the measured shrunken log2 fold change obtained for "RRIRGRPPRLPRPRPRPDYNPRP" with Escherichia coli TOP10.
Resp: -0.12

Req: Kindly state the measured shrunken log2 fold change obtained for "RRIRCRPPRLPRPRPRPACAPRP" with Escherichia coli TOP10.
Resp: 0.433

Req: Kindly state the measured shrunken log2 fold change obtained for "RRIRRRPPRLPRPRPRPHMIPRP" with Escherichia coli TOP10.
Resp: -0.13

Req: Kindly state the measured shrunken log2 fold change obtained for "RRIRRRPPRLPRPRPRPGNPPRP" with Escherichia coli TOP10.
Resp: 0.608

Req: Kindly state the measured shrunken log2 fold change obtained for "RRIRVRPPRLPRPRPRPSQCPRP" with Escherichia coli TOP10.
Resp: -0.187

Req: Kindly state the measured shrunken log2 fold change obtained for "RRIRTRPPRLPRPRPRPVVWPRP" with Escherichia coli TOP10.
Resp: 0.617

====

Listing: shrunken log2 fold change of selected sequences
test system: Escherichia coli TOP10; assay: shrunken log2 fold change of peptide-encoding DNA abundance (4.5 h post-induction vs induction); higher = less antimicrobial activity (less host growth inhibition); settings: time post-induction: 4.5 h; library: site-saturation at positions 5, 18, 19, 20

Req: For the sequence "RRIRYRPPRLPRPRPRPGCHPRP" , what shrunken log2 fold change is on record?
Resp: -0.711

Req: For the sequence "RRIRHRPPRLPRPRPRPAKDPRP" , what shrunken log2 fold change is on record?
Resp: -0.0214

Req: For the sequence "RRIRVRPPRLPRPRPRPYQQPRP" , what shrunken log2 fold change is on record?
Resp: -0.323

---
Req: For the sequence "RRIRFRPPRLPRPRPRPACTPRP" , what shrunken log2 fold change is on record?
Resp: -0.148

Req: For the sequence "RRIRYRPPRLPRPRPRPFMGPRP" , what shrunken log2 fold change is on record?
Resp: -0.316

Req: For the sequence "RRIRPRPPRLPRPRPRPRQMPRP" , what shrunken log2 fold change is on record?
Resp: 0.184

Req: For the sequence "RRIRQRPPRLPRPRPRPRGEPRP" , what shrunken log2 fold change is on record?
Resp: 0.348

Req: For the sequence "RRIRNRPPRLPRPRPRPMMIPRP" , what shrunken log2 fold change is on record?
Resp: -0.0237

Req: For the sequence "RRIRQRPPRLPRPRPRPQPFPRP" , what shrunken log2 fold change is on record?
Resp: -0.0492

Req: For the sequence "RRIRVRPPRLPRPRPRPWMIPRP" , what shrunken log2 fold change is on record?
Resp: -0.0467

Req: For the sequence "RRIRVRPPRLPRPRPRPLHMPRP" , what shrunken log2 fold change is on record?
Resp: -0.17

====

tested on: Escherichia coli TOP10; assay: shrunken log2 fold change of peptide-encoding DNA abundance (4.5 h post-induction vs induction); higher = less antimicrobial activity (less host growth inhibition); settings: time post-induction: 4.5 h; library: site-saturation at positions 5, 18, 19, 20
Label rule, in plain words: shrunken log2 fold change of 0.004 and up is 1, under 0.004 is 0.

Worked set:
Req: Decide: shrunken log2 fold change of "RRIRIRPPRLPRPRPRPTYPPRP" >= 0.004?
Resp: 0

Req: Decide: shrunken log2 fold change of "RRIRTRPPRLPRPRPRPCVRPRP" >= 0.004?
Resp: 1

Req: Decide: shrunken log2 fold change of "RRIRIRPPRLPRPRPRPEHIPRP" >= 0.004?
Resp: 0

---
Req: Decide: shrunken log2 fold change of "RRIRKRPPRLPRPRPRPVCMPRP" >= 0.004?
Resp: 1

Req: Decide: shrunken log2 fold change of "RRIRYRPPRLPRPRPRPVNIPRP" >= 0.004?
Resp: 0

Req: Decide: shrunken log2 fold change of "RRIRHRPPRLPRPRPRPSVLPRP" >= 0.004?
Resp: 0

====

test system: Escherichia coli TOP10; experiment: shrunken log2 fold change of peptide-encoding DNA abundance (4.5 h post-induction vs induction); higher = less antimicrobial activity (less host growth inhibition); conditions: time post-induction: 4.5 h; library: site-saturation at positions 5, 18, 19, 20
measured-quantity: shrunken log2 fold change
Hey, just send me the number, nothing else.

Record excerpt, results attached:
Req: For the sequence "RRIRQRPPRLPRPRPRPVTMPRP" , what shrunken log2 fold change is on record?
Resp: -0.0817

Req: For the sequence "RRIRNRPPRLPRPRPRPRTQPRP" , what shrunken log2 fold change is on record?
Resp: 0.11

Req: For the sequence "RRIRVRPPRLPRPRPRPSGNPRP" , what shrunken log2 fold change is on record?
Resp: -0.225

Req: For the sequence "RRIRDRPPRLPRPRPRPIYDPRP" , what shrunken log2 fold change is on record?
Resp: -0.0423

---
Req: For the sequence "RRIRSRPPRLPRPRPRPTFNPRP" , what shrunken log2 fold change is on record?
Resp: -0.366

Req: For the sequence "RRIRIRPPRLPRPRPRPPDRPRP" , what shrunken log2 fold change is on record?
Resp: 0.109

Req: For the sequence "RRIRERPPRLPRPRPRPRSPPRP" , what shrunken log2 fold change is on record?
Resp: 0.0194

Req: For the sequence "RRIRDRPPRLPRPRPRPMVAPRP" , what shrunken log2 fold change is on record?
Resp: 0.00167

====

Listing: shrunken log2 fold change of selected sequences
system: Escherichia coli TOP10; assay: shrunken log2 fold change of peptide-encoding DNA abundance (4.5 h post-induction vs induction); higher = less antimicrobial activity (less host growth inhibition); settings: time post-induction: 4.5 h; library: site-saturation at positions 5, 18, 19, 20;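 further: peptides expressed intracellularly from a pBAD plasmid library in pooled LB shake-flask culture, induced with 0.3% L-arabinose, DNA abundance read by NGS, three biological replicates, DESeq2 with apeglm shrinkage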
Hey, just send me the number, nothing else.

Record excerpt, results attached:
Req: For the sequence "RRIRWRPPRLPRPRPRPILQPRP" , what shrunken log2 fold change is on record?
Resp: 0.0247

Req: For the sequence "RRIRPRPPRLPRPRPRPGPAPRP" , what shrunken log2 fold change is on record?
Resp: 0.51

Req: For the sequence "RRIRQRPPRLPRPRPRPCSHPRP" , what shrunken log2 fold change is on record?
Resp: 0.0226

Req: For the sequence "RRIRMRPPRLPRPRPRPHEGPRP" , what shrunken log2 fold change is on record?
Resp: 0.443

Req: For the sequence "RRIRHRPPRLPRPRPRPLSWPRP" , what shrunken log2 fold change is on record?
Resp: 0.146

Req: For the sequence "RRIRLRPPRLPRPRPRPAHGPRP" , what shrunken log2 fold change is on record?
Resp: -0.0453

---
Req: For the sequence "RRIRQRPPRLPRPRPRPALVPRP" , what shrunken log2 fold change is on record?
Resp: 0.297

Req: For the sequence "RRIRGRPPRLPRPRPRPHVMPRP" , what shrunken log2 fold change is on record?
Resp: 0.0731

Req: For the sequence "RRIRTRPPRLPRPRPRPDEAPRP" , what shrunken log2 fold change is on record?
Resp: -0.0661

Req: For the sequence "RRIRMRPPRLPRPRPRPFGIPRP" , what shrunken log2 fold change is on record?
Resp: 0.0278

Req: For the sequence "RRIRVRPPRLPRPRPRPHVEPRP" , what shrunken log2 fold change is on record?
Resp: 0.0127

Req: For the sequence "RRIRGRPPRLPRPRPRPAKCPRP" , what shrunken log2 fold change is on record?
Resp: -0.0198
